MEAN CORPUSCULAR VOLUME overview
Species on record: Rattus norvegicus
protocol.details: DrugMatrix - Regimen: Daily Repeat
Assay type: toxicity, organism-based, Sprague-Dawley
Set-up: regimen Daily Repeat, gender Male, age 6-8 weeks
test.settings: in vivo, iv, 0 mg/kg, 72 h, tissue Blood, dose level Control, time 3 day, vehicle 100 % SALINE
Provide only the numeric value, understood in fL.

Some solved cases for reference:
compound="CC1(C)S[C@@H]2[C@H](NC(=O)[C@H](NC(=O)N3CCNC3=O)c3ccccc3)C(=O)N2[C@H]1C(=O)O [AZLOCILLIN]" reading=61.57
compound="NCC[C@H](O)C(=O)N[C@@H]1C[C@H](N)[C@@H](O[C@H]2O[C@H](CN)[C@@H](O)[C@H](O)[C@H]2O)[C@H](O)[C@H]1O[C@H]1O[C@H](CO)[C@@H](O)[C@H](N)[C@H]1O [AMIKACIN]" reading=62.6
compound="CC[C@@]1(O)C(=O)OCc2c1cc1n(c2=O)Cc2cc3ccccc3nc2-1 [CAMPTOTHECIN]" reading=64.37

Now look at this entry.
Query :: Consider the compound CN(N=O)C(=O)N[C@@H](C=O)[C@@H](O)[C@H](O)[C@H](O)CO [STREPTOZOCIN] and give its recorded MEAN CORPUSCULAR VOLUME.
Result :: 62.25

====

Species on record: Rattus norvegicus
protocol.details: DrugMatrix - Regimen: Daily Repeat
Format: toxicity, organism-based, Sprague-Dawley
Design: regimen Daily Repeat, gender Male, age 6-8 weeks
test.settings: in vivo, ip, 160 mg/kg, […], tissue Blood, route intraperitoneal, dose level High, time 28 day, vehicle 100 % SALINE
metric: ABSOLUTE LYMPHOCYTE (cells/µL)
Provide only the numeric value, understood in cells/µL.

Query :: Consider the compound `NCC[C@H](O)C(=O)N[C@@H]1C[C@H](N)[C@@H](O[C@H]2O[C@H](CN)[C@@H](O)[C@H](O)[C@H]2O)[C@H](O)[C@H]1O[C@H]1O[C@H](CO)[C@@H](O)[C@H](N)[C@H]1O` and give its recorded ABSOLUTE LYMPHOCYTE.
Result :: 9100

====

Species: Rattus norvegicus
protocol.details: DrugMatrix - Regimen: Daily Repeat
Type: toxicity, organism-based, Sprague-Dawley
Design: regimen Daily Repeat, gender Male, age 6-8 weeks
test.settings: in vivo, po, 0 mg/kg, 120 h, tissue Plasma, route oral GAVAGE, dose level Control, time 5 day, vehicle .5 % CMC
POTASSIUM overview
Provide only the numeric value, understood in MEQ/L.

Some solved cases for reference:
compound="CN1CCC[C@@H]1CCO[C@](C)(c1ccccc1)c1ccc(Cl)cc1 [CLEMASTINE]" metric=POTASSIUM reading=5.63
compound="C[C@]12CCC(=O)C=C1CC[C@@H]1[C@@H]2C(=O)C[C@@]2(C)[C@H]1CC[C@]2(O)C(=O)CO [CORTISONE]" metric=POTASSIUM reading=6.47
compound=CC(/C=C1\SC(=S)N(CC(=O)O)C1=O)=C\c1ccccc1 metric=POTASSIUM reading=5.63
compound="Cc1c(-c2ccccc2)oc2c(C(=O)OCCN3CCCCC3)cccc2c1=O [FLAVOXATE]" metric=POTASSIUM reading=6.85
compound="CC1(C)[C@H]2CC[C@]1(C)C(=O)C2 [(-)-CAMPHOR]" metric=POTASSIUM reading=6.82
compound="NCC(=O)O [GLYCINE]" metric=POTASSIUM reading=6.27
compound="CC[C@H]1OC(=O)[C@H](C)[C@@H](O[C@H]2C[C@@](C)(OC)[C@@H](O)[C@H](C)O2)[C@H](C)[C@@H](O[C@@H]2O[C@H](C)C[C@H](N(C)C)[C@H]2O)[C@](C)(O)C[C@@H](C)/C(=N\\OCOCCOC)[C@H](C)[C@@H](O)[C@]1(C)O [ROXITHROMYCIN]" metric=POTASSIUM reading=6.47
compound="CCc1cccc2c3c([nH]c12)C(CC)(CC(=O)O)OCC3 (stereo not given) [ETODOLAC]" metric=POTASSIUM reading=6.47
compound="CN1C(C(=O)Nc2ccccn2)=C(O)c2ccccc2S1(=O)=O [PIROXICAM]" metric=POTASSIUM reading=6.85

Now look at this entry.
Query :: Consider the compound O=C1CCc2cc(OCCCCc3nnnn3C3CCCCC3)ccc2N1 [CILOSTAZOL] and give its recorded POTASSIUM.
Result :: 7.2
